# Species: Rattus norvegicus
# method-notes: Open TG-GATES - Regimen: Daily Repeat
# Format: toxicity, organism-based, Sprague-Dawley
# Set-up: regimen Daily Repeat, gender Male, age 6 weeks
# run-conditions: in vivo, po, 0 mg/kg, 72 h, tissue Blood, route gavage, dose level Control, time 3 day
assay-readout: RBC (x10_4/ul)
The answer is to be given in x10_4/ul; state only the numeric part.

• C[C@H]1C(=O)O[C@@H]2CCN3CC=C(COC(=O)[C@](C)(O)[C@]1(C)O)[C@H]23 = 631.2
• Cc1cccc(C)c1OCC(C)N (centres undefined) = 636.6
• C[C@H]1O[C@H](O[C@H]2[C@H](O)[C@@H](O)[C@@H](O[C@H]3[C@H](O)[C@@H](O)C(O)O[C@@H]3CO)O[C@@H]2CO)[C@H](O)[C@@H](O)[C@@H]1N[C@H]1C=C(CO)[C@@H](O)[C@H](O)[C@H]1O (some centres undefined) = 632.2
• OCCN1CCN(CCCN2c3ccccc3Sc3ccc(C(F)(F)F)cc32)CC1 = 632.2
• Cn1cc[nH]c1=S = 609

Qu. Provide one value: measured RBC of O=C1CN(/N=C/c2ccc([N+](=O)[O-])o2)C(=O)N1
Ans. 622.8

Qu. Provide one value: measured RBC of C=C(C)[C@H]1Cc2c(ccc3c2O[C@@H]2COc4cc(OC)c(OC)cc4[C@@H]2C3=O)O1
Ans. 635

Qu. Provide one value: measured RBC of O=[N+]([O-])c1ccc(O)c([N+](=O)[O-])c1
Ans. 599.4

Qu. Provide one value: measured RBC of CCOC(=O)C(C)(C)Oc1ccc(Cl)cc1 [CLOFIBRATE]
Ans. 646.2
